target_or_test_system: Nitrile hydratase (PtNHase), alpha subunit (Pseudonocardia thermophila, UniProt Q7SID2+Q7SID3)
Sequence (Q7SID2 2-204): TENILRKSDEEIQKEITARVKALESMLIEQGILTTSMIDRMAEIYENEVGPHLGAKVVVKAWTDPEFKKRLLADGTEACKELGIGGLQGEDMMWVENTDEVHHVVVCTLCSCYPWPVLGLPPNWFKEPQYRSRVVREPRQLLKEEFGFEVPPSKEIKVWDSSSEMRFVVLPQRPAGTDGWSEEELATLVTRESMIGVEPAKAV
Sequence (Q7SID3 1-233): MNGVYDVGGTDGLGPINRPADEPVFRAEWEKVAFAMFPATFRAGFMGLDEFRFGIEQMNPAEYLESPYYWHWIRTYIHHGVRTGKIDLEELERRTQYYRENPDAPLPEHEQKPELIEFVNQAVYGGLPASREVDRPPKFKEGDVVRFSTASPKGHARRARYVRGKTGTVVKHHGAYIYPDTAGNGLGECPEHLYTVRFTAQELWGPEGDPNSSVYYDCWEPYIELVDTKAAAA
assay_remarks: X-ray crystal structures
Format: biochemical
metric_name: pKi
// pKi here means minus log10 of the molar concentration (mol/L)

Reported pKi, compound CCCCB(O)O : ____
6.30

----------
target_or_test_system: Nitrile hydratase (PtNHase), alpha subunit (Pseudonocardia thermophila, UniProt Q7SID2+Q7SID3)
assay_remarks: X-ray co-crystal structure
Format: biochemical
metric_name: pKi
// pKi here means minus log10 of the molar concentration (mol/L)

Reported pKi, molecule OB(O)c1ccccc1 : ____
10.40
